Catalogue of IC50 readings, one per entry.
- STUDY TARGET: UniProt:O00187
- Sequence (O00187 other isoform, or with tags, fused parts or gaps): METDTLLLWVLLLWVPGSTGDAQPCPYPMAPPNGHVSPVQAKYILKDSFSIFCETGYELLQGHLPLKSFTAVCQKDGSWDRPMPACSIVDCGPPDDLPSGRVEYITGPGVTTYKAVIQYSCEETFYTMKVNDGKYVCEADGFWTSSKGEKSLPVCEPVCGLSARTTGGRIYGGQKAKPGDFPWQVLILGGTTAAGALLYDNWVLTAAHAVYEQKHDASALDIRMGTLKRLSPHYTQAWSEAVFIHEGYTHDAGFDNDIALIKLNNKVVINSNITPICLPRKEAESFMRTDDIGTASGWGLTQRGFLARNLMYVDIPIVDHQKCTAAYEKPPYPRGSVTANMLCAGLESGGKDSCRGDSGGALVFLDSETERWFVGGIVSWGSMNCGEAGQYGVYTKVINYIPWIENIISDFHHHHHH
- METHOD NOTES: Biochemical human MASP2 assay (FRET substrate)
- TEST PARAMETERS: Average IC50; recombinant human MASP2; read-out: human MASP2 IC50
Where a SMILES comes first, the peptide text is derived from it. Bridges are numbered along the chain shown (N, C = ends). Triazole bridges read from a SMILES are 1,4-linked. [ ]: non-standard residue; d: D form. Oic = O=C(O)[C@@H]1C[C@@H]2CCCC[C@@H]2N1; Dap(N3) = [N-]=[N+]=NC[C@H](N)C(=O)O; tBuAla = CC(C)(C)C[C@H](N)C(=O)O; Pen = CC(C)(S)[C@H](N)C(=O)O; NMeC = CN[C@@H](CS)C(=O)O; Pra = C#CC[C@H](N)C(=O)O; Ahx = NCCCCCC(=O)O

COMPOUND	ENDPOINT UNIT	IC50
CC[C@H](C)[C@@H]1NC(=O)[C@H]2NC(=O)[C@H]([C@@H](C)CC)NC(=O)[C@@H]3CCCN3C(=O)[C@@H]3CCCN3C(=O)[C@H](CC(C)(C)C)NC(=O)[C@H](CO)NC(=O)[C@H](CCCNC(=N)N)NC(=O)[C@H](CO)NC(=O)[C@H](CSSC2(C)C)NC(=O)[C@H]([C@@H](C)CC)NC(=O)[C@@H](N)CCCCNC1=O [Example 67] (H-KICSRS[tBuAla]PPI[Pen]I; lactam 1-C; disulfide 3-11)	nM	150
CC[C@H](C)[C@@H]1NC(=O)[C@H](CN)NC(=O)[C@H](CN)NC(=O)[C@@H]2CCCN2C(=O)[C@H]([C@@H](C)CC)NC(=O)[C@H]2NC(=O)[C@H]([C@@H](C)CC)NC(=O)[C@@H]3C[C@@H]4CCCC[C@@H]4N3C(=O)[C@@H]3CCCN3C(=O)[C@H](CC(C)C)NC(=O)[C@H](CO)NC(=O)[C@H](CCCNC(=N)N)NC(=O)[C@H](CO)NC(=O)[C@H](CSSC2(C)C)NC1=O	nM	91
CC[C@H](C)[C@@H]1NC(=O)CCCCCNC(=O)[C@H]([C@@H](C)CC)NC(=O)[C@@H]2CSSC[C@H](NC1=O)C(=O)N[C@@H](CO)C(=O)N[C@@H](CCCNC(=N)N)C(=O)N[C@@H](CO)C(=O)N[C@@H](CC(C)C)C(=O)N1CCC[C@H]1C(=O)N1[C@@H](C[C@@H]3CCCC[C@@H]31)C(=O)N[C@@H]([C@@H](C)CC)C(=O)N2 [Example 95] (cyclo([Ahx]ICSRSLP[Oic]ICI); disulfide 3-11)	nM	110
CC[C@H](C)[C@@H]1NC(=O)CNC(=O)CNC(=O)[C@H](C)NC(=O)[C@@H](CC(=O)O)NC(=O)[C@@H]2CCCN2C(=O)[C@H]([C@@H](C)CC)NC(=O)[C@H]2NC(=O)[C@H]([C@@H](C)CC)NC(=O)[C@@H]3CCCN3C(=O)[C@@H]3CCCN3C(=O)[C@H](CC(C)(C)C)NC(=O)[C@H](CO)NC(=O)[C@H](CCCNC(=N)N)NC(=O)[C@H](CO)NC(=O)[C@H](CSSC2(C)C)NC1=O [Example 39] (cyclo(AGGICSRS[tBuAla]PPI[Pen]IP[dD]); disulfide 5-13)	nM	75
CC[C@H](C)[C@@H]1NC(=O)CNC(=O)CCCCCNC(=O)C[C@@H](C(N)=O)NC(=O)[C@@H]2CCCN2C(=O)[C@H]([C@@H](C)CC)NC(=O)[C@@H]2CSSC[C@H](NC1=O)C(=O)N[C@@H](CO)C(=O)N[C@@H](CCCNC(=N)N)C(=O)N[C@@H](CO)C(=O)N[C@@H](CC(C)(C)C)C(=O)N1CCC[C@H]1C(=O)N1CCC[C@H]1C(=O)N[C@@H]([C@@H](C)CC)C(=O)N2C [Example 40] ([Ahx]GICSRS[tBuAla]PPI[NMeC]IPD-NH2; disulfide 4-12; lactam N-15)	nM	90
CC[C@H](C)[C@@H]1NC(=O)CNC(=O)CNC(=O)[C@H](C)NC(=O)[C@@H](CC(=O)O)NC(=O)[C@@H]2CCCN2C(=O)[C@H]([C@@H](C)CC)NC(=O)[C@@H]2CSSC[C@H](NC1=O)C(=O)N[C@@H](CO)C(=O)N[C@@H](CCCNC(=N)N)C(=O)N[C@@H](CO)C(=O)N[C@@H](CC(C)(C)C)C(=O)N1CCC[C@H]1C(=O)N1CCC[C@H]1C(=O)N[C@@H]([C@@H](C)CC)C(=O)N2C [Example 47] (cyclo(AGGICSRS[tBuAla]PPI[NMeC]IP[dD]); disulfide 5-13)	nM	66
CC[C@H](C)[C@@H]1NC(=O)[C@H](C)NC(=O)CCCCCNC(=O)[C@H](CC(=O)O)NC(=O)[C@@H]2CCCN2C(=O)[C@H]([C@@H](C)CC)NC(=O)[C@@H]2CSSC[C@H](NC1=O)C(=O)N[C@@H](CO)C(=O)N[C@@H](CCCNC(=N)N)C(=O)N[C@@H](CO)C(=O)N[C@@H](CC(C)(C)C)C(=O)N1CCC[C@H]1C(=O)N1CCC[C@H]1C(=O)N[C@@H]([C@@H](C)CC)C(=O)N2 [Example 46] (cyclo(AICSRS[tBuAla]PPICIPD[Ahx]); disulfide 3-11)	nM	89
CC[C@H](C)[C@@H]1NC(=O)[C@H](C)NC(=O)CNC(=O)[C@@H](N)Cn2cc(nn2)C[C@@H](C(N)=O)NC(=O)[C@@H]2CCCN2C(=O)[C@H]([C@@H](C)CC)NC(=O)[C@@H]2CSSC[C@H](NC1=O)C(=O)N[C@@H](CO)C(=O)N[C@@H](CCCNC(=N)N)C(=O)N[C@@H](CO)C(=O)N[C@@H](CC(C)(C)C)C(=O)N1CCC[C@H]1C(=O)N1CCC[C@H]1C(=O)N[C@@H]([C@@H](C)CC)C(=O)N2 [Example 81] (H-[Dap(N3)]GAICSRS[tBuAla]PPICIP[Pra]-NH2; triazole 1-16; disulfide 5-13)	nM	230
CC[C@H](C)[C@@H]1NC(=O)[C@H](C)NC(=O)CNC(=O)C[C@@H](C(N)=O)NC(=O)[C@@H]2CCCN2C(=O)[C@H]([C@@H](C)CC)NC(=O)[C@@H]2CSSC[C@H](NC1=O)C(=O)N[C@@H](CO)C(=O)N[C@@H](CCCNC(=N)N)C(=O)N[C@@H](CO)C(=O)N[C@@H](CC(C)C)C(=O)N1CCC[C@H]1C(=O)N1CCC[C@H]1C(=O)N[C@@H]([C@@H](C)CC)C(=O)N2 [Example 37] (GAICSRSLPPICIPD-NH2; disulfide 4-12; lactam N-15)	nM	140

====

- STUDY TARGET: human MASP1 (Homo sapiens (Human))
- Sequence (P48740 other isoform, or with tags, fused parts or gaps): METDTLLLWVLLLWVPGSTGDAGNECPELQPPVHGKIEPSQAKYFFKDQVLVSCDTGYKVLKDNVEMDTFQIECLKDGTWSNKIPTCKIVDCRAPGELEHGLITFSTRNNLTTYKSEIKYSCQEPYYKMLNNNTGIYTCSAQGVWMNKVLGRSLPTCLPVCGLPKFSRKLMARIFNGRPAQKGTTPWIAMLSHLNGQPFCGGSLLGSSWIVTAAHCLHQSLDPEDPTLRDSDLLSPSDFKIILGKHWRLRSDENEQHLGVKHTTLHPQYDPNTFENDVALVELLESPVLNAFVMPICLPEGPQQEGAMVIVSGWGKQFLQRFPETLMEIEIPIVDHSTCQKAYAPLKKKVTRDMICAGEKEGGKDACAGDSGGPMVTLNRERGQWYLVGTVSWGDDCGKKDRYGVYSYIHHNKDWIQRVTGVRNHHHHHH
- METHOD NOTES: Biochemical human MASP1 assay (FRET substrate)
- TEST PARAMETERS: Average IC50; recombinant human MASP1; read-out: human MASP1 IC50
- Excerpt: A truncated cDNA sequence of human MASP1 encoding the fragment corresponding to the amino acids 297-699 with a C-terminal His Tag and N-terminal Ig-kappa secretion signal (SEQ ID No: 2) was subcloned into the mammalian expression vector pcDNA3.1 (Invitrogen). The MASP1 or MASP2 expression vectors were transfected into the HEK293 (ATCC No. CRL-1573) cell line using Lipofectamine LTX® Reagent (Thermo-Fischer), as described by the manufacturer. […]
Where a SMILES comes first, the peptide text is derived from it. Bridges are numbered along the chain shown (N, C = ends). [ ]: non-standard residue; d: D form. ξ: configuration not given here. Oic = O=C(O)[C@@H]1C[C@@H]2CCCC[C@@H]2N1; Trx = NC[C@H]1CC[C@H](C(=O)O)CC1; tBuAla = CC(C)(C)C[C@H](N)C(=O)O; Pen = CC(C)(S)[C@H](N)C(=O)O; Dap = NC[C@H](N)C(=O)O; ξD = NC(CC(=O)O)C(=O)O; Ahx = NCCCCCC(=O)O

MOLECULE	STUDY TARGET	IC50
CC[C@H](C)[C@@H]1NC(=O)CNC(=O)CCCCCNC(=O)C[C@@H](C(N)=O)NC(=O)[C@@H]2CCCN2C(=O)[C@H]([C@@H](C)CC)NC(=O)[C@H]2NC(=O)[C@H]([C@@H](C)CC)NC(=O)[C@@H]3CCCN3C(=O)[C@@H]3CCCN3C(=O)[C@H](CC(C)(C)C)NC(=O)[C@H](CO)NC(=O)[C@H](CCCNC(=N)N)NC(=O)[C@H](CO)NC(=O)[C@H](CSSC2(C)C)NC1=O [Example 48] ([Ahx]GICSRS[tBuAla]PPI[Pen]IPD-NH2; disulfide 4-12; lactam N-15)	human MASP1 (Homo sapiens (Human))	0.01 µM
CC[C@H](C)[C@@H]1NC(=O)CNC(=O)[C@H]2CC[C@@H](CC2)CNC(=O)CNC(=O)CC(C(N)=O)NC(=O)[C@@H]2CCCN2C(=O)[C@H]([C@@H](C)CC)NC(=O)[C@H]2NC(=O)[C@H]([C@@H](C)CC)NC(=O)[C@@H]3CCCN3C(=O)[C@@H]3CCCN3C(=O)[C@H](CC(C)(C)C)NC(=O)[C@H](CO)NC(=O)[C@H](CCCNC(=N)N)NC(=O)[C@H](CO)NC(=O)[C@H](CSSC2(C)C)NC1=O (stereo partly shown) [Example 62] (G[Trx]GICSRS[tBuAla]PPI[Pen]IP[ξD]-NH2; disulfide 5-13; lactam N-16)	human MASP1 (Homo sapiens (Human))	0.022 µM
CC[C@H](C)[C@@H]1NC(=O)[C@H](CN)NC(=O)[C@@H]2CCCN2C(=O)[C@H]([C@@H](C)CC)NC(=O)[C@H]2NC(=O)[C@H]([C@@H](C)CC)NC(=O)[C@@H]3C[C@@H]4CCCC[C@@H]4N3C(=O)[C@H]3CCCN3C(=O)[C@H](CC(C)C)NC(=O)[C@H](CO)NC(=O)[C@H](CCCNC(=N)N)NC(=O)[C@H](CO)NC(=O)[C@H](CSSC2(C)C)NC1=O [Example 87] (cyclo(CSRSL[dP][Oic]I[Pen]IP[Dap]I); disulfide 1-9)	human MASP1 (Homo sapiens (Human))	0.046 µM
CC[C@H](C)[C@@H]1NC(=O)[C@H](C)NC(=O)[C@@H](N)CSSC[C@@H](C(N)=O)NC(=O)[C@H](CC(=O)O)NC(=O)[C@@H]2CCCN2C(=O)[C@H]([C@@H](C)CC)NC(=O)[C@H]2NC(=O)[C@H]([C@@H](C)CC)NC(=O)[C@@H]3CCCN3C(=O)[C@@H]3CCCN3C(=O)[C@H](CC(C)(C)C)NC(=O)[C@H](CO)NC(=O)[C@H](CCCNC(=N)N)NC(=O)[C@H](CO)NC(=O)[C@H](CSSC2(C)C)NC1=O [Example 50] (H-CAICSRS[tBuAla]PPI[Pen]IPDC-NH2; disulfide 1-16, 4-12)	human MASP1 (Homo sapiens (Human))	0.013 µM
